# Tested on: carrageenin-induced oedema
# ASSAY OVERVIEW: Localised carrageenin-induced oedema method (anti-inflammatory action)
# Assay type: in vivo, rat
# TEST SETTINGS: 50 mg/kg oral, 5th hour
Decide using reduction of the inflammatory reaction, 5th hour alone. Strictly below 60: MET. Equal to or above 60: NOT MET.

Data request: In the record for Clc1ccccc1N1CCN(CC=C2CN=C(NC3CCCCC3)S2)CC1 [Derivative No. 37] , is reduction of the inflammatory reaction, 5th hour less than 60?
Data returned: MET

Data request: Determine if FC(F)(F)c1cccc(N2CCN(CC=C3CN=C(NC4CCCCC4)S3)CC2)c1 [Derivative No. 36] shows reduction of the inflammatory reaction, 5th hour strictly lower than 60.
Data returned: NOT MET

Data request: For this compound, is reduction of the inflammatory reaction, 5th hour lower than 60? Clc1ccc(N2CCN(CC=C3CN=C(NC4CCCCC4)S3)CC2)cc1 [Derivative No. 34]
Data returned: MET

Data request: Here's an entry: C(CN1CCN(c2ccccc2)CC1)=C1CN=C(NC2CCCCC2)S1 [Derivative No. 35] . Is its reduction of the inflammatory reaction, 5th hour below 60?
Data returned: MET

Data credit: patent US4018786A
